Assay System: OAT3 (Homo sapiens, UniProt Q8TCC7)
Sequence (Q8TCC7 whole entry): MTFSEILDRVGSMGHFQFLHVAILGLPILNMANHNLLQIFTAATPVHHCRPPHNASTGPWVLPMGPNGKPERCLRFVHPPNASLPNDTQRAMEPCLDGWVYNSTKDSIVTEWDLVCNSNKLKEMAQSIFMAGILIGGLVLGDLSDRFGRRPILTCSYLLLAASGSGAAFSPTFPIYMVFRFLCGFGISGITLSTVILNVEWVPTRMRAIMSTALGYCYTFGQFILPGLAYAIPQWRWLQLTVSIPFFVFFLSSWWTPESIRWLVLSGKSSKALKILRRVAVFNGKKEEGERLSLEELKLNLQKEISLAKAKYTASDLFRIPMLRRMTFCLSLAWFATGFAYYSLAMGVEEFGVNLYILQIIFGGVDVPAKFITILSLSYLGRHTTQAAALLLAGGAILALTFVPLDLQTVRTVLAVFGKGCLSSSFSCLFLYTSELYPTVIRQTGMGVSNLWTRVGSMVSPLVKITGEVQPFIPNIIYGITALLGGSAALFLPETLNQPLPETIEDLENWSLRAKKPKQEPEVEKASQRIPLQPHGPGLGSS
Assay Method Text: Inhibitory effect of seven drugs on OAT3-mediated ES uptake
Assay type: cell-based
Parameters: host or cells: HEK293
Condition Parameters: 50 μM or 50 μg/mL; N = 2
Readout Kind: Relative net uptake rate (% of NC), Mean, OAT3-mediated ES uptake

O=C(c1cc(Cc2n[nH]c(=O)c3ccccc23)ccc1F)N1CCN(C(=O)C2CC2)CC1: 70.2 % of NC

GET /value?item= C[C@@H](O)[C@H]1C(=O)N2C(C(=O)O)=C(S[C@@H]3CN[C@H](C(=O)N(C)C)C3)[C@H](C)[C@H]12 &field=Relative net uptake rate (% of NC), Mean, OAT3-mediated ES uptake returns 26.6 % of NC

// field: Relative net uptake rate (% of NC), Mean, OAT3-mediated ES uptake; key: COc1ccnc(C[S+]([O-])c2nc3ccc(OC(F)F)cc3[nH]2)c1OC (stereo not shown) ; value = 87.2 % of NC

Per the records, this compound ( CCCCC[C@H](O)/C=C/[C@H]1[C@H](O)CC(=O)[C@@H]1CCCCCCC(=O)O ) has Relative net uptake rate (% of NC), Mean, OAT3-mediated ES uptake equal to 52.6 % of NC
